test system: K. pneumoniae (ATCC10031); assay: 50% growth inhibitory concentration (IC50) determination assay; type: cell-based; settings: Klebsiella pneumoniae, Iso-Sensitest broth, 0.098 = detection limit
Listed compounds paired with reported IC50

1) CNc1cc(F)c(F)c2c1[nH]c1ncc(-c3cnc4c(c3)c(=O)c(C(=O)O)cn4C)c(N3CC[C@@H]4C3CCN4C)c12 (stereo partly drawn) | < 0.098 µM
2) CNc1cc(F)c(F)c2c1[nH]c1ncc(-c3cnc4c(c3)c(=O)c(C(=O)O)cn4C)c(N3CC[C@@H]4C3CN4C)c12 (stereo partly drawn) | < 0.098 µM

Turning now to a further record.
Input line: Find IC50 (K. pneumoniae (ATCC10031)) for the entry CNc1cc(F)c(F)c2c1[nH]c1ncc(-c3cnc4c(c3)c(=O)c(C(=O)O)cn4C)c(N3CCCC(N(C)C)C3)c12 (stereo not drawn)
Output line: 0.103 µM
